# System name: Cytochrome P450 3A4 (Homo sapiens) (UniProt P08684)
# Sequence (P08684 whole entry, looked up): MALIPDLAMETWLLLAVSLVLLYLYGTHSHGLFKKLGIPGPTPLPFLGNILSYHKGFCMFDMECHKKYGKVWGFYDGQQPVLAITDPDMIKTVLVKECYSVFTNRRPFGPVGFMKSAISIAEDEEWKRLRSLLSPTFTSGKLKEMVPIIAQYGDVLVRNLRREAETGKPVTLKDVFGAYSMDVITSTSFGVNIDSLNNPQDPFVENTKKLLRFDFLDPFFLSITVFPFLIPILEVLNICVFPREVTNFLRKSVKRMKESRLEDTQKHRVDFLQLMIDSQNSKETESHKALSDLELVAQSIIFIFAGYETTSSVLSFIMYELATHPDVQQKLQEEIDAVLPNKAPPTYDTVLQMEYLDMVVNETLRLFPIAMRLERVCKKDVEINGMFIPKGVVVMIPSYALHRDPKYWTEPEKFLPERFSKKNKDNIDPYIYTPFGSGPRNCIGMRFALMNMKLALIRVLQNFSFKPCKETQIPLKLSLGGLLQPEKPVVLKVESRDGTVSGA
# Method summary: Cytochrome panel assay with activity outcomes; on activity, negative = inhibition: on the % scale 0 is the no-effect control and ±100 the full control effect
# Study conditions: recombinant CYP, pro-luciferin dealkylation, luminescence, p450-cyp3a4; series mostly up to 57.1 µM
In all, about 16,000 compounds went through this assay and about 5,100 (32%) were called active. Roughly 25% stayed inconclusive and do not appear here. Some of the results follow.
activity, negative = inhibition: recorded values

compound=CC(C)CO/N=C1/[C@H]2O[C@@H]2[C@@H](O)[C@H]2[C@H]1CCn1c(=O)n(C)c(=O)n12 readout="activity, negative = inhibition" measurement="-9.68% [at 11.4 µM] (inactive)"

Give the reported activity, negative = inhibition for this compound. CCC(=O)Nc1ccc(/C(C)=N\NS(=O)(=O)c2ccc(C)cc2)cc1
-25.1% [at 2.29 µM] (inactive)

Give the reported activity, negative = inhibition for this compound. CC(C)(C)c1cc(Br)c(O)c(CN(Cc2cc(C(C)(C)C)cc(Br)c2O)C2CCCCC2)c1
-3.9% [at 11.4 µM] (inactive)

Give the reported activity, negative = inhibition for this compound. CC1(C)CC(=O)C/C(=N/NC(=O)CCCOc2ccc(Cl)cc2Cl)C1
-15.2% [at 2.29 µM] (inactive)

Give the reported activity, negative = inhibition for this compound. Cc1ccc2[nH]c(-c3ccccc3)c(CN(C)C)c(=O)c2c1
9.06% [at 2.29 µM] (inactive)

Give the reported activity, negative = inhibition for this compound. Cc1ccc(NC(=O)NNC(=O)Cn2nc(-c3ccccc3)c(-c3ccccc3)c(C#N)c2=O)cc1
26.4% [at 0.457 µM] (inactive)

Give the reported activity, negative = inhibition for this compound. CS[C@]12C(=O)C[C@]3(C)[C@@H](CC[C@@]3(O)C(=O)CO)[C@@H]1CCC1=CC(=O)CC[C@]12C
-14.7% [at 11.4 µM] (inactive)

###

# System name: Cytochrome P450 3A4 (Homo sapiens)
# Method summary: Cytochrome panel assay with activity outcomes
# Study conditions: recombinant CYP, pro-luciferin dealkylation, luminescence, p450-cyp3a4; series mostly up to 57.1 µM
The whole screen tested about 16,000 compounds, of which about 5,100 (32%) were called active. Inconclusive results (about 25%) are left out. The list shows a part of the results.
Readout: AC50

compound=Cc1ccc(OCCCn2c(=O)sc3ccccc32)cc1 system_name="Cytochrome P450 3A4 (Homo sapiens)" readout=AC50 measurement="17.8 µM (active)"
compound=Nc1ccn([C@@H]2CC[C@H](CO)O2)c(=O)n1 system_name="Cytochrome P450 3A4 (Homo sapiens)" readout=AC50 measurement=inactive
compound=Cc1cc(N2CCOCC2)nc(SCc2ccc(Cl)cc2Cl)n1 system_name="Cytochrome P450 3A4 (Homo sapiens)" readout=AC50 measurement="2.24 µM (active)"
compound=CCOc1c2ccc(C(=O)NCCCCc3ccccc3)cc2nn1C system_name="Cytochrome P450 3A4 (Homo sapiens)" readout=AC50 measurement=inactive
compound=CCCn1nc2cc(C(=O)NCCc3ccc(C)cc3)ccc2c1OCC system_name="Cytochrome P450 3A4 (Homo sapiens)" readout=AC50 measurement="6.31 µM (active)"
compound=CCCn1nc2cc(C(=O)NCCCCc3ccccc3)ccc2c1OCC system_name="Cytochrome P450 3A4 (Homo sapiens)" readout=AC50 measurement="15.8 µM (active)"
compound=COc1cc(/C=C(\C#N)C(N)=O)cc(CSc2nc3ccccc3s2)c1O system_name="Cytochrome P450 3A4 (Homo sapiens)" readout=AC50 measurement="3.98 µM (active)"
compound=CCCn1nc2cc(C(=O)NCc3ccc(C)cc3)ccc2c1OC system_name="Cytochrome P450 3A4 (Homo sapiens)" readout=AC50 measurement="14.1 µM (active)"
compound=O=c1sc2ccccc2n1CCCOc1ccccc1 system_name="Cytochrome P450 3A4 (Homo sapiens)" readout=AC50 measurement="17.8 µM (active)"
compound=OC[C@H]1NC[C@@H](O)[C@@H](O)[C@H]1O system_name="Cytochrome P450 3A4 (Homo sapiens)" readout=AC50 measurement=inactive

Give the reported AC50 for this compound. Cc1cc(F)ccc1S(=O)(=O)Nc1ccccc1C(=O)Nc1ccccc1N1CCOCC1
0.891 µM (active)

Give the reported AC50 for this compound. C[N+](C)(CCCOc1ccccc1)c1ccccc1
inactive

###

# System name: Cytochrome P450 3A4 (Homo sapiens)
# Method summary: Cytochrome panel assay with activity outcomes; on activity, negative = inhibition: on the % scale 0 is the no-effect control and ±100 the full control effect
# Study conditions: recombinant CYP, pro-luciferin dealkylation, luminescence, p450-cyp3a4; series mostly up to 57.1 µM
Out of some 16,000 compounds screened, about 5,100 (32%) were called active. Another 25% or so got no clear call; they are omitted. This is one part of the list.
Readout: activity, negative = inhibition

compound=CC[C@@]1(O)C(=O)OCc2c1cc1n(c2=O)Cc2cc3c(CN(C)C)c(O)ccc3nc2-1 system_name="Cytochrome P450 3A4 (Homo sapiens)" measurement="-2.47% [at 11.4 µM] (inactive)"
compound=COc1ccc(-c2cc([C@H](O)[C@@H]3CCCCN3)c3ccccc3n2)cc1 system_name="Cytochrome P450 3A4 (Homo sapiens)" measurement="-6.63% [at 11.4 µM] (inactive)"
compound=O=C(O)/C=C\c1c2ccc(=O)c(O)c-2oc2c(O)c(O)ccc12 system_name="Cytochrome P450 3A4 (Homo sapiens)" measurement="-22.7% [at 11.4 µM] (inactive)"
compound=O=C(CSc1ccccc1)Nc1ccc(N2CCN(c3ccccc3)CC2)c(F)c1 system_name="Cytochrome P450 3A4 (Homo sapiens)" measurement="-8.27% [at 11.4 µM] (inactive)"
compound=CN(C)CCCN1c2ccc3ccccc3c2Sc2cccc(Cl)c21 system_name="Cytochrome P450 3A4 (Homo sapiens)" measurement="-11.7% [at 11.4 µM] (inactive)"
compound=CC(C)Cn1cnc2c(Sc3c([N+](=O)[O-])ncn3C)nc(N)nc21 system_name="Cytochrome P450 3A4 (Homo sapiens)" measurement="-7.97% [at 11.4 µM] (inactive)"
compound=O=C(O)c1ccccc1N/N=C\c1ccnc2ccccc12 system_name="Cytochrome P450 3A4 (Homo sapiens)" measurement="-0.0882% [at 2.29 µM] (inactive)"
compound=CCCCCCc1nc2ccccc2c(=O)n1NC(=O)c1c(O)c2c(n(CC(C)C)c1=O)CCCC2 system_name="Cytochrome P450 3A4 (Homo sapiens)" measurement="10% [at 2.29 µM] (inactive)"

// fetch activity, negative = inhibition; item: CCOC(=O)c1sc(NC(=O)CSc2nc(C)cc(C)c2C#N)c(C#N)c1C ; system: Cytochrome P450 3A4 (Homo sapiens)
-17.1% [at 2.29 µM] (inactive)

// fetch activity, negative = inhibition; item: COc1ccccc1NC(=S)NC(=O)c1ccc(-c2ccc(Cl)cc2)o1 ; system: Cytochrome P450 3A4 (Homo sapiens)
-7.71% [at 2.29 µM] (inactive)

// fetch activity, negative = inhibition; item: O=C(CN1CCCC1)N/N=C/c1ccc(-c2cccc(Cl)c2)o1 ; system: Cytochrome P450 3A4 (Homo sapiens)
13.8% [at 2.29 µM] (inactive)

###

# System name: Cytochrome P450 3A4 (Homo sapiens)
# Method summary: Cytochrome panel assay with activity outcomes
# Study conditions: recombinant CYP, pro-luciferin dealkylation, luminescence, p450-cyp3a4; series mostly up to 57.1 µM
Hit rate of the full screen: of about 16,000 compounds, about 5,100 (32%) were called active. Not shown: some 25% with an inconclusive outcome. The call rests on the fitted dose curve; in most records, active means well fitted curve in the direction sought with a large enough effect; inconclusive means small, poorly fitted or top-dose-only effect, or effect the other way; inactive means no such curve, though single readings can be large or run the other way. The list shows a part of the results.
API: response.call in Y = active, N = inactive

// below: answered compounds
compound=Cc1ccc(NC(=S)Nc2nc(CC(=O)Nc3ccccc3)cs2)cc1 class=Y
compound="COc1ccc(/C=C2\\CCCC3C2=NN(C(=O)c2ccco2)C3c2ccc(OC)c(OC)c2)cc1OC (centres undefined)" class=Y
compound=c1ccc(-c2nc(NCCCn3ccnc3)c3oc4ccccc4c3n2)cc1 class=Y
compound=CCCCCCN1Cc2ccccc2C1 class=N
compound="O=C1c2cccc3cccc(c23)C(=O)N1CC1CCN(CC(O)COc2ccc3ccccc3c2)CC1 (centres undefined)" class=Y

For this compound, state the assay outcome: Cc1ccc(CSc2nc3c(c(SCC(=O)O)n2)CCCC3)cc1
N

For this compound, state the assay outcome: Cc1ncsc1C(=O)N1N=C2/C(=C/c3ccccc3)CCCC2C1c1ccccc1 (centres undefined)
Y

For this compound, state the assay outcome: CN1CCCC[C@@H]1CCN1c2ccccc2Sc2ccc(S(C)=O)cc21 (some centres undefined)
N

For this compound, state the assay outcome: N#Cc1cccc(-c2cncnc2NCc2cccs2)c1
Y

For this compound, state the assay outcome: Cc1nc2sc(C#N)c(N)c2c2c1CCCC2
Y

For this compound, state the assay outcome: O=C(Nc1ccccc1C(=O)O)c1ccc2ccccc2n1
N

For this compound, state the assay outcome: Cc1cc(C)nc(NN2C(=O)/C(=C/c3ccccc3)SC2=S)n1
N

For this compound, state the assay outcome: CCCCC[C@H](O)c1cccc(OCc2ccc3ccccc3n2)c1
Y

For this compound, state the assay outcome: c1ccc2c(c1)oc1c(NCCCn3ccnc3)ncnc12
Y

For this compound, state the assay outcome: CC(=O)OC1CCC(OC(C)=O)c2c1n([O-])c(C)c(C)[n+]2=O (centres undefined)
N
